Target: T1, human IL-18BP (human, UniProt O95998 31-194)
T1 construct: UniProt printed as 095998; also called hIL-18BP
T1 sequence: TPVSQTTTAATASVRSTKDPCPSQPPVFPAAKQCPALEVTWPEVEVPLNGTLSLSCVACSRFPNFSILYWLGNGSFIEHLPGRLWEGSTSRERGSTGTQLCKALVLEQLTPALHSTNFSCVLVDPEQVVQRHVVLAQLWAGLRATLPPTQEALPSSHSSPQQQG
Assay: BLI, apparent KD
pKd: −log10 of the molar value.
List of pKd values.

- Binder: "SA301a HC-I99N (antibody, name in Kabat numbering, V domains shown, IgG1 kappa) VH: QVQLQESGPGLVKPSQTLSLTCTVSGYSITSDYNSHWIRQPPGKGLEWIGYIHYSGSTNYNPSLKSRVTISRDTSKNQFSLKLSSVTAADTAVYYCARNYGSNYVNYFDYWGQGTLVTVSS VL: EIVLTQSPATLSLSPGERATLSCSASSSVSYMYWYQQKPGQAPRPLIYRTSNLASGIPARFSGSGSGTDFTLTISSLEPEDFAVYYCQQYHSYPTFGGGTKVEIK"
  pKd: 9.26
- Binder: "SA301a HC-N100bD (antibody, name in Kabat numbering, V domains shown, IgG1 kappa) VH: QVQLQESGPGLVKPSQTLSLTCTVSGYSITSDYNSHWIRQPPGKGLEWIGYIHYSGSTNYNPSLKSRVTISRDTSKNQFSLKLSSVTAADTAVYYCARNYGSIYVDYFDYWGQGTLVTVSS VL: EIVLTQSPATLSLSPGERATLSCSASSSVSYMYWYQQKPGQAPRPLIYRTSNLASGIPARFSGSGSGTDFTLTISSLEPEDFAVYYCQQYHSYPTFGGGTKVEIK"
  pKd: 8.64
- Binder: "SA301a HC-I99E (antibody, name in Kabat numbering, V domains shown, IgG1 kappa) VH: QVQLQESGPGLVKPSQTLSLTCTVSGYSITSDYNSHWIRQPPGKGLEWIGYIHYSGSTNYNPSLKSRVTISRDTSKNQFSLKLSSVTAADTAVYYCARNYGSEYVNYFDYWGQGTLVTVSS VL: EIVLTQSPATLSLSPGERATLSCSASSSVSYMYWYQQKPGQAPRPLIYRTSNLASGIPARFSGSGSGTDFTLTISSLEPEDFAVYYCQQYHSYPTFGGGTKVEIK"
  pKd: 8.71
- Binder: "SA301a HC-V100aM (antibody, name in Kabat numbering, V domains shown, IgG1 kappa) VH: QVQLQESGPGLVKPSQTLSLTCTVSGYSITSDYNSHWIRQPPGKGLEWIGYIHYSGSTNYNPSLKSRVTISRDTSKNQFSLKLSSVTAADTAVYYCARNYGSIYMNYFDYWGQGTLVTVSS VL: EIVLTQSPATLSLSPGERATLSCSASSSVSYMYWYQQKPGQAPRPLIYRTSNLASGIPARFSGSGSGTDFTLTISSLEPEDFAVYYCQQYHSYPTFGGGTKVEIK"
  pKd: 9.10
